The measurements presented in this section are drawn from ChEMBL document CHEMBL5442175.

# target-under-test: Sigma non-opioid intracellular receptor 1 (Homo sapiens, UniProt Q99720)
# Sequence (Q99720 whole entry): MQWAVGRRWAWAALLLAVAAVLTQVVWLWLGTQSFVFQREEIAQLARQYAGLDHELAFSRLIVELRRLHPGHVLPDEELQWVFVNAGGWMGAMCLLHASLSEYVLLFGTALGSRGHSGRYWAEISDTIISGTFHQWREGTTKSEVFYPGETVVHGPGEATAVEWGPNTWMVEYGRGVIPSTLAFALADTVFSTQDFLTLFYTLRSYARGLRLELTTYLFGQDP
# experiment-notes: PDSP Secondary Binding target: SIGMAR1 - Compounds are tested at 10 uM concentration, plate are incubated at room temperature in the dark for 90 minutes. Reaction are stopped by vacuum filtration onto 0.3% polyethyleneimine soaked filter mats using Filtermate harvester. Scintillation cocktail is then melted onto microwave-dried filters on a hot plate and the radio activity is counted in Microbia counter.
Counter-ions that a name gives are not always drawn.
Labelling: Ki reported below 800 nM becomes y; at or above becomes n.

compound: Nc1nc2c(c(N3CCNCC3)n1)CCC1=C2[C@@H]2CCCC[C@@H]2O1
label: y
//
compound: CN1C2CCC1CC(OC(c1ccc(F)cc1)c1ccc(F)cc1)C2 (centres undefined)
label: y
//
compound: CO[C@@H]1COCC[C@@H]1N[C@@H]1CC[C@@](C(=O)N2CCc3ncc(C(F)(F)F)cc3C2)(C(C)C)C1
label: n
//
compound: Cc1nn(C)c(C)c1-c1cccc2c1CC[C@H](N(C)C)C2
label: y
//
compound: Cc1ccc2c(c1)c1c(n2CCc2ccc(C)nc2)CCN(C)C1 [LATREPIRDINE]
label: n
//
compound: N#Cc1ccc2[nH]cc(CCCCN3CCN(c4ccc5oc(C(N)=O)cc5c4)CC3)c2c1 [VILAZODONE HYDROCHLORIDE]
label: y
//
compound: Cc1nc2sccn2c(=O)c1CCN1CCC(=C(c2ccc(F)cc2)c2ccc(F)cc2)CC1
label: y
//
compound: CCc1cc(C(C)=O)c(O)cc1OCCCCCC(C)(C)c1nn[nH]n1
label: n
//
compound: CN1CCC(C(=O)c2cccc(NC(=O)c3c(F)cc(F)cc3F)n2)CC1
label: n
